# Test system: M. suipneumoniae LABER
# procedureSummary: Anti-mycoplasmal in vitro MIC
# Type: cell-based
# settings: Mesomycoplasma hyopneumoniae, 144 h, Friis broth solidified with 0.9% agarose, 6 days incubation at 37°C
For each record, write down the corresponding MIC.
Please reply with the bare figure in µg/mL and do not write the unit itself.

Q) Recorded MIC of C/C(=C\C(=O)OCc1cccc(C#N)c1)CC1OCC(CC2OC2C(C)C(C)O)C(O)C1O (stereo not drawn) [Example 2, m-Cyanobenzyl monate A] , please.
A) 0.05

Q) Recorded MIC of C/C(=C\C(=O)OCc1cc(C#N)cc(C#N)c1)CC1OCC(CC2OC2C(C)C(C)O)C(O)C1O (stereo not drawn) [Example 6, 3,5-Dicyanobenzyl monate A] , please.
A) 0.05

Q) Recorded MIC of C/C(=C\C(=O)OC(C)c1ccc(C#N)cc1)CC1OCC(CC2OC2C(C)C(C)O)C(O)C1O (stereo not drawn) [Example 4, 1-(p-Cyanophenyl)ethyl monate A] , please.
A) 1

Q) Recorded MIC of C/C(=C\C(=O)OCc1ccc(C#N)cc1)CC1OCC(CC2OC2C(C)C(C)O)C(O)C1O (stereo not drawn) [Example 3, p-Cyanobenzyl monate A] , please.
A) 0.1

Q) Recorded MIC of C/C(=C\C(=O)OCc1cccc(C#N)c1)CC1OCC(C/C=C/C(C)C(C)O)C(O)C1O (stereo not drawn) [Example 5, m-Cyanobenzyl monate C] , please.
A) 0.5

Q) Recorded MIC of C/C(=C\C(=O)OCc1ccccc1C#N)CC1OCC(CC2OC2C(C)C(C)O)C(O)C1O (stereo not drawn) [Example 1, o-Cyanobenzyl monate A] , please.
A) 0.5

###

# Test system: M. gallisepticum S6
For each record, write down the corresponding MIC.
Please reply with the bare figure in µg/mL and do not write the unit itself.

Q) Recorded MIC of C/C(=C\C(=O)OCc1ccc(C#N)cc1)CC1OCC(CC2OC2C(C)C(C)O)C(O)C1O (stereo not drawn) [Example 3, p-Cyanobenzyl monate A] , please.
A) 0.25

Q) Recorded MIC of C/C(=C\C(=O)OCc1cccc(C#N)c1)CC1OCC(C/C=C/C(C)C(C)O)C(O)C1O (stereo not drawn) [Example 5, m-Cyanobenzyl monate C] , please.
A) 10

Q) Recorded MIC of C/C(=C\C(=O)OCc1cccc(C#N)c1)CC1OCC(CC2OC2C(C)C(C)O)C(O)C1O (stereo not drawn) [Example 2, m-Cyanobenzyl monate A] , please.
A) 2.5

###

For each record, write down the corresponding MIC.
Please reply with the bare figure in mg/L and do not write the unit itself.

Q) I'm curious: which MIC was measured for C/C(=C\C(=O)OCc1cccc(C#N)c1)CC1OCC(C/C=C/C(C)C(C)O)C(O)C1O (stereo not drawn) [Example 5, m-Cyanobenzyl monate C] tested on Strep. agalactiae SPA1?
A) 2.5

Q) I'm curious: which MIC was measured for C/C(=C\C(=O)OCc1cc(C#N)cc(C#N)c1)CC1OCC(CC2OC2C(C)C(C)O)C(O)C1O (stereo not drawn) [Example 6, 3,5-Dicyanobenzyl monate A] tested on Strep. agalactiae SPA1?
A) 0.625

Q) I'm curious: which MIC was measured for C/C(=C\C(=O)OCc1cccc(C#N)c1)CC1OCC(CC2OC2C(C)C(C)O)C(O)C1O (stereo not drawn) [Example 2, m-Cyanobenzyl monate A] tested on Strep. agalactiae SPA1?
A) 0.625

Q) I'm curious: which MIC was measured for C/C(=C\C(=O)OCc1ccccc1C#N)CC1OCC(CC2OC2C(C)C(C)O)C(O)C1O (stereo not drawn) [Example 1, o-Cyanobenzyl monate A] tested on Strep. agalactiae SPA1?
A) 2.5

Q) I'm curious: which MIC was measured for C/C(=C\C(=O)OC(C)c1ccc(C#N)cc1)CC1OCC(CC2OC2C(C)C(C)O)C(O)C1O (stereo not drawn) [Example 4, 1-(p-Cyanophenyl)ethyl monate A] tested on Strep. agalactiae SPA1?
A) 10

Q) I'm curious: which MIC was measured for C/C(=C\C(=O)OCc1ccc(C#N)cc1)CC1OCC(CC2OC2C(C)C(C)O)C(O)C1O (stereo not drawn) [Example 3, p-Cyanobenzyl monate A] tested on Strep. agalactiae SPA1?
A) 1.25
